protocol: Inhibition of [3H](+)-pentazocine binding to Sigma receptor type 1
Would you kindly list Ki for each of these compounds?
Answers are plain numbers, in nM.

Below are some compounds; for each one, tell me its Ki.
1. COc1ccc2c(c1)[C@]1(CCN(C)C)CCCC[C@@H]1C=C2
2. COc1ccc2c(c1)[C@]1(CCN(C)CCOCc3ccccc3)CCCC[C@@H]1C=C2
3. CN(CC[C@@]12CCCC[C@@H]1C=Cc1ccc(OCC(=O)OC(C)(C)C)cc12)CC(=O)OC(C)(C)C

Output:
1. 245
2. 241
3. 14

Below are some compounds; for each one, tell me its Ki.
1. CNCC[C@@]12CCCC[C@@H]1C=Cc1ccc(OC)cc12
2. COc1ccc2c(c1)[C@]13CCCC[C@@H]1[C@H](C2)N(C)CC3
3. COc1ccc2c(c1)[C@]1(CCN(C)CC(=O)OC(C)(C)C)CCCC[C@@H]1C=C2
4. COCCN(C)CC[C@@]12CCCC[C@@H]1C=Cc1ccc(OC)cc12
5. CN(CC[C@]12CCCC[C@H]1C=Cc1ccc(OCC(=O)OC(C)(C)C)cc12)CC(=O)OC(C)(C)C

Output:
1. 456
2. 348
3. 37
4. 49
5. 115

Below are some compounds; for each one, tell me its Ki.
1. C=CCN(C)CC[C@@]12CCCC[C@@H]1C=Cc1ccc(OC)cc12
2. COc1ccc2c(c1)[C@]1(CCN(C)CCO)CCCC[C@@H]1C=C2

Output:
[49, 161]
